PROTOCOL_NOTES: protein stability index of a GFP-peptide fusion (GPS, HEK-293T) (PSI 1-6); higher = more stable;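 further: 24-mer peptide tiles fused after GFP, lentivirally expressed, FACS-sorted into six equal bins by GFP/DsRed ratio, decoded by Illumina sequencing, PSI is the read-weighted mean bin number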
CONDITION_CONTEXT: treatment: MLN4924 1 uM, 8 h; c terminus: a fixed tail appended
Exercise: for every item that follows, state its recorded protein stability index.

Note to self: protein stability index recorded for MAGSDTAPFLSQADDPDDGPVPGT [SPNS1] was 5.34

// RRCGKCFCDRCCSQKVPLRRMCFV [ZFYVE21] : protein stability index value = 2.31

The reported protein stability index of the sequence PLFMAAFDGRHSQTLKAMVQAWPF [PRAME] was 2.07

protein stability index recorded for this sequence, DVESGQLLQSFHGHGADVLCLDLA [GNB5] , is 3.81

The sequence listed as REVEARYALQMEQLNGILLHLESE [KRT18] shows protein stability index equal to 3.16

Just so you know, measured protein stability index for KSIDPVLMAPTCVFLASKVEEFGV [CCNC] came out at 2.05

response.value for LGKTEQGFENMDFFTLDLEHIADA [TRIM63] (field: protein stability index) = 3.8

// protein stability index value for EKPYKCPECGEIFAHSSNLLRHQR [ZNF263] : 3.76

Given item EQEKEAQHKDQTAALPLAAEETAN [MAP2] , the value recorded as its protein stability index is 5.5

The sequence identified as ATIHGAIRLVCSRGNRLKTTSWGL [SCNN1D] registered its protein stability index at 2.18

# protein stability index (sequence: RCKEENTIILQQLLPLRTKVAKLL [NLN] ) is 2.21

Documented protein stability index of VRLKPALQRLDFSVRGYMMSKQRE [RETREG3] : 2.7

Kindly note the recorded protein stability index for LLKITIPNAFIGSDVVDWLYHNVE [DVL3] , which is 2.26

The sequence AADGETTATEELEKTQDDLMKHQT [EPB41L3] showed protein stability index equal to 5.64

Form: sequence = RLSVPRDSACDESSCIPKAFGNPK [IRX6] ; protein stability index = 4.89

Record summary for VKCFNDLKAEELLLKIHEVSTVSH [CASP6] : reported protein stability index = 2.44

Field protein stability index (entry LSEVKPPPPPPPAQTFLFQGQPVV [TRADD] ) reads 4.07

The reported protein stability index of the sequence KQLICPICLEMFTKPVVILPCQHN [TRIM63] was 3.01

Please fill in: protein stability index reported for RRLYHLEGFQRCDVARQLGKNNEF [PSD2] = 2.8

response.value for HLDRTSVSSLSEVEEVDMAEEFEQ [ELOA2] (field: protein stability index) = 5.48

# protein stability index (sequence: SHGVRNKCLQLLGNLGSLEKSVTK [INTS4] ) is 3.28

response.value for EGPDLVPAALGSLTTAQIARSVWR [HES6] (field: protein stability index) = 3.59

Lab book: protein stability index of DNMYRLAHFSPFLYYQSQELPNGS [PDZK1] noted as 2.33

Value of measured protein stability index for the entry QDVDPVHNLIEQVSLGLGQPWHAV [FBXO33] : 2.55

The reported value for AERLRAELLDLKAGGFSIRNQKGE [MYORG] in terms of protein stability index is 4.24

Looking up DALPGQSKRLAVPCKLEKMRILAH [TLE6] , I found its protein stability index recorded as 2.4

Short answer for RPYMCKECGKAFSQNSSLVQHERI [ZNF8] : protein stability index was 3.24
